Biological target: FGFR2 (Homo sapiens (Human), UniProt P21802)
Sequence (P21802 22-821): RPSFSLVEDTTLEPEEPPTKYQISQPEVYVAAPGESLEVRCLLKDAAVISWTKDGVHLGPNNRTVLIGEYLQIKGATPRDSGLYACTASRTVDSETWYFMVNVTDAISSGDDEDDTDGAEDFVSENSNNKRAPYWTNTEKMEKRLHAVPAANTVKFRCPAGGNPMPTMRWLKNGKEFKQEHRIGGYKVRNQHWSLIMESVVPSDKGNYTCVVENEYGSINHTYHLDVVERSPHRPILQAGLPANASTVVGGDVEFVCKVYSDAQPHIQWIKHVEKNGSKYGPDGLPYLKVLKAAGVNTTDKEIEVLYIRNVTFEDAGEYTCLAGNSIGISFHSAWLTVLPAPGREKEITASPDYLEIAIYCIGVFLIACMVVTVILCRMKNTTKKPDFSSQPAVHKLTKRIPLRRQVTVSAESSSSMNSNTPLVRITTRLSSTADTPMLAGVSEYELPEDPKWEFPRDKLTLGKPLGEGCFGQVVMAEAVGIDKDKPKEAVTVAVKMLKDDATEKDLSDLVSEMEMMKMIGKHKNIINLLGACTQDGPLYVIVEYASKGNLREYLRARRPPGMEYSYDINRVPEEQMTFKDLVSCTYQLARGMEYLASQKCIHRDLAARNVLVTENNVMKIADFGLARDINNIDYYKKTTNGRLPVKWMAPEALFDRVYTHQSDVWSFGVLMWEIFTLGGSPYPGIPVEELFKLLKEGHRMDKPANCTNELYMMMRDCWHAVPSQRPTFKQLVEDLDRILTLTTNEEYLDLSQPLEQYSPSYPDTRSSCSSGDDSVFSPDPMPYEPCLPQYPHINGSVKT
Assay: FGFR2 Biochemical Caliper Assay
pIC50: −log10 of the molar value.
observed.property: pIC50

Here are 3 molecules together with their reported answers.
{"columns": ["molecule", "target.of.assay", "observed.property", "result.value"],
 "data": [
  ["C=C(C)C(=O)Nc1ccc(-c2c(-c3ccc(CN4CC[C@@H](O)C4)cc3)c3c(N)ncnc3n2C)cc1", "FGFR2 (Homo sapiens (Human), UniProt P21802)", "pIC50", "4.00 to 6.00"],
  ["C=C(C)C(=O)Nc1ccc(-c2c(-c3ccc(Oc4cccc(C)n4)cc3)c3c(N)ncnc3n2C)cc1F", "FGFR2 (Homo sapiens (Human), UniProt P21802)", "pIC50", "> 7.00"],
  ["C=C(C)C(=O)Nc1ccc(-c2c(-c3ccc(C(=O)N4CCC5CC54)cc3)c3c(N)ncnc3n2C)cc1 (stereo not shown)", "FGFR2 (Homo sapiens (Human), UniProt P21802)", "pIC50", "> 7.00"]
]}

Determine its reported pIC50: `C=CC(=O)N1CC=C(c2c(-c3ccc(Oc4cccc(C)n4)cc3)c3c(N)ncnc3n2C)C1`
> 7.00

Determine its reported pIC50: `Cn1c(-c2ccc(N3CCC=CC3=O)cc2)c(-c2ccc(C(=O)N3CCCC3)cc2)c2c(N)ncnc21`
4.00 to 6.00

Determine its reported pIC50: `C=C(C)C(=O)Nc1ccc(-c2c(-c3ccc(C(=O)N4CCCC4)cc3F)c3c(N)ncnc3n2C)cc1`
6.60 to 7.00

Determine its reported pIC50: `C=C(C)C(=O)Nc1ccc(-c2c(-c3ccc(C(=O)N4CC5CCC(C5)C4)cc3)c3c(N)ncnc3n2C)cc1`
> 7.00

###

Target: FGFR2 (Homo sapiens (Human), UniProt P21802)
Assay: FGFR2 Biochemical Caliper Assay
pIC50: −log10 of the molar value.
Recorded measurements of pIC50, one per entry

Here are 5 molecules together with their reported answers.
{"columns": ["molecule", "pIC50"],
 "data": [
  ["C=CC(=O)N1CC=C(c2c(-c3ccc(Oc4ncccn4)cc3)c3c(N)ncnc3n2C)CC1", "> 7.00"],
  ["C=C(C)C(=O)Nc1ccc(-c2c(-c3ccc(C(=O)N(C)Cc4ncon4)cc3)c3c(N)ncnc3n2C)cc1", "4.00 to 6.00"],
  ["C=C(C)C(=O)Nc1ccc(-c2c(-c3ccc(C(=O)N(C)C4CC(F)(F)C4)cc3)c3c(N)ncnc3n2C)cc1", "6.00 to 6.60"],
  ["C=C(C)C(=O)Nc1ccc(-c2c(-c3ccc(Oc4cccc(C)n4)cc3)c3c(N)ncnc3n2C)c(F)c1", "> 7.00"],
  ["C=C(C)C(=O)Nc1ccc(-c2c(-c3ccc(C(=O)N4CCCC4)cc3)c3c(N)ncnc3n2C)c(CC)c1 [Example 516]", "> 7.00"]
]}

Determine its reported pIC50: `C=C(C)C(=O)Nc1ccc(-c2c(-c3ccc(Oc4nccc(C)n4)c(C)c3)c3c(N)ncnc3n2C)cc1`
> 7.00

Determine its reported pIC50: C=CC(=O)N1CCC(c2c(-c3ccc(Oc4ncccn4)cc3)c3c(N)ncnc3n2CCN2CCN(C)CC2)C1 (centres unmarked)
4.00 to 6.00

Determine its reported pIC50: `C=C(C)C(=O)Nc1ccc(-c2c(C3=CC[C@@H](C(=O)N4CC5CCC(C5)C4)CC3)c3c(N)ncnc3n2C)cc1`
> 7.00

Determine its reported pIC50: C=C(C)C(=O)Nc1ccc(-c2c(-c3ccc(C(=O)N4CCC5CC5C4)cc3)c3c(N)ncnc3n2C)cc1 (centres unmarked)
> 7.00

Determine its reported pIC50: `C=C(C)C(=O)Nc1ccc(-c2c(-c3ccc(Oc4cccc(C)n4)cn3)c3c(N)ncnc3n2C)cc1`
> 7.00

Determine its reported pIC50: C=C(C)C(=O)Nc1ccc(-c2c(-c3ccc(C(=O)N4CC5CC5C4)cc3)c3c(N)ncnc3n2C)cc1 (centres unmarked)
6.60 to 7.00

Determine its reported pIC50: `C=C(C)C(=O)Nc1ccc(-c2c(-c3ccc(-c4cc(C)no4)cc3)c3c(N)ncnc3n2C)cc1`
6.00 to 6.60

Determine its reported pIC50: `C=C(C)C(=O)Nc1ccc(-c2c(-c3cccc(C(=O)N4CCCC4)c3)c3c(N)ncnc3n2C)cc1`
4.00 to 6.00

Determine its reported pIC50: `C=C(C)C(=O)Nc1ccc(-c2c(-c3ccc(C(=O)N4CC5CC4(CO)C5)cc3)c3c(N)ncnc3n2C)cc1`
6.00 to 6.60

Determine its reported pIC50: C=C(C)C(=O)Nc1ccc(-c2c(-c3ccc(OC4CCOC4)c(C)c3)c3c(N)ncnc3n2C)cc1 (centres unmarked)
6.00 to 6.60

Determine its reported pIC50: `C=C(C)C(=O)Nc1ccc(-c2c(-c3ccc(C(=O)N4CCCC4)cc3)c3c(N)ncnc3n2C)c(OC)c1`
> 7.00

Determine its reported pIC50: `C=C(C)C(=O)Nc1ccc(-c2c(-c3ccc(Oc4nccc(C)n4)c(Cl)c3)c3c(N)ncnc3n2C)cc1`
> 7.00
